// each record: one item and its pIC50 for Prostaglandin G/H synthase 2 (Mus musculus)
The read-out pIC50 is expressed as -log10 of concentration in moles per litre.

Some solved entries appear below for comparison.
CC1(C)OC(c2ccc(S(C)(=O)=O)cc2)=C(c2ccc(Br)cc2)C1=O
7.15
CC1(C)OC(c2ccc(S(N)(=O)=O)cc2)=C(c2cccc(C(F)(F)F)c2)C1=O
7.57
CCC1(CC)OC(c2ccc(S(C)(=O)=O)cc2)=C(c2ccccc2)C1=O
4.87

API: the following record is the query input.
I looked up CC1(C)OC(c2ccc(S(N)(=O)=O)cc2)=C(c2ccc(F)c(F)c2)C1=O and its pIC50 for Prostaglandin G/H synthase 2 (Mus musculus) was 7.73
